# Tested On: wild-type ALK2 (aa172-499) (Homo sapiens (Human), UniProt Q04771)
# Sequence (Q04771 172-499): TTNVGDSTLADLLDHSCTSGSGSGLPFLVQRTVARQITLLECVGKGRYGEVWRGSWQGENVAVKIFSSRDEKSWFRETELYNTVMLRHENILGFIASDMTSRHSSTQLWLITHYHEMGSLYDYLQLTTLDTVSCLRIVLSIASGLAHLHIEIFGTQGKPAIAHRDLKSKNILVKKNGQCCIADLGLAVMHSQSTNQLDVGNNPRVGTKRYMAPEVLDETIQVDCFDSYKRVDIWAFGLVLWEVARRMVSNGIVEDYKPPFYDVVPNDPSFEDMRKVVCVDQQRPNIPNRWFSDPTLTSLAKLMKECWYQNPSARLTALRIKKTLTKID
# Protocol Summary: ADPGlo biochemical autophosphorylation assay, ALK2
# Recorded Conditions: 15 μm ATP, 60 min at 32° C.
Below, each entry is listed with its recorded pIC50.
FYI, pIC50 means -log10 of a concentration in mol per litre.

Some solved entries appear below for comparison.
C[C@@H]1CCCN1Cc1ccc(-c2cnc(N)c(C(=O)N[C@H]3CC[C@](C)(O)CC3)c2)c(Cl)c1 [Example 81]: 6.82
CS(=O)(=O)N1CCC(N2C[C@H]3C[C@@]3(c3ccc(-c4cnc(N)c(C(=O)N[C@H]5CC[C@H](O)CC5)c4)cc3)C2)CC1 [Example 1]: 8.30
Nc1ncc(-c2ccc(CN3CC4(CCC4)C3)cc2)cc1C(=O)N[C@H]1CC[C@H](O)CC1 [Example 23]: 8.05
Nc1ncc(-c2ccc([C@@]34C[C@@H]3CN(C3CCOCC3)C4)cc2)cc1C(=O)N[C@H]1CC[C@@H](O)CC1 [Example 22]: 8.05
Nc1ncc(-c2ccc([C@]34C[C@H]3CN(CC3COC3)C4)cc2)cc1C(=O)N[C@H]1CC[C@H](O)CC1 [Example 38]: 8.15

Form: compound = Nc1ncc(-c2ccc([C@]34C[C@H]3CN(CCN3CCOCC3)C4)cc2)cc1C(=O)N[C@H]1CC[C@H](O)CC1 [Example 13] ; pIC50 = 8.10

Form: compound = CC(C)N1C[C@H]2C[C@@]2(c2ccc(-c3cnc(N)c(C(=O)N[C@H]4CC[C@](C)(O)CC4)c3)cc2)C1 [Example 24] ; pIC50 = 7.96

Form: compound = Nc1ncc(-c2ccc([C@@]34C[C@@H]3CN(CC3COC3)C4)cc2)cc1C(=O)N[C@H]1CC[C@H](O)CC1 [Example 70] ; pIC50 = 7.70

Form: compound = Nc1ncc(-c2ccc([C@@]34C[C@@H]3CN(CCF)C4)cc2)cc1C(=O)N[C@H]1CC[C@H](O)CC1 [Example 48] ; pIC50 = 8.10

Form: compound = Nc1ncc(-c2ccc([C@]34C[C@H]3CN(CCCN3CCOCC3)C4)cc2)cc1C(=O)N[C@H]1CC[C@H](O)CC1 [Example 5] ; pIC50 = 8.15

Form: compound = Nc1ncc(-c2ccc([C@@]34C[C@@H]3CN(CCN3CCOCC3)C4)cc2)cc1C(=O)NC12CCC(O)(CC1)CC2 [Example 15] ; pIC50 = 7.54

Form: compound = Nc1ncc(-c2ccc(C(=O)N3CCOCC3)cc2)cc1C(=O)NC1CCCCC1 [Example 69] ; pIC50 = 7.39

Form: compound = Nc1ncc(-c2ccc([C@@]34C[C@@H]3CN(C3COC3)C4)cc2)cc1C(=O)NC12CCC(O)(CC1)CC2 [Example 64] ; pIC50 = 6.96

Form: compound = CN1CCN(C(=O)c2ccc(-c3cnc(N)c(C(=O)NC4CCCCC4)c3)cc2)CC1 [Example 45] ; pIC50 = 7.70
